- Study System: GST-ANAC019 NAC domain (Arabidopsis thaliana, UniProt Q9C932 14-162)
- Sequence: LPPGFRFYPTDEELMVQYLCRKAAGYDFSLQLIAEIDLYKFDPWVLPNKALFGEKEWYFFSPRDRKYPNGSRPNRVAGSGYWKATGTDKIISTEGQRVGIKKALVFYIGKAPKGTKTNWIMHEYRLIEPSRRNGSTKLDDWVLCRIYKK
- Test Protocol: universal protein binding microarray (PBM); transcription factors of Arabidopsis thaliana; high values mean tight binding
- Experimental Conditions: protein: recombinant; tags: GST; chain copies: 2; dsDNA, one strand shown
Mark fulfilled for reported binding signal of 0.3 E-score or greater; mark not fulfilled for anything smaller.

Study these solved cases before continuing.
TACACGTA :: not fulfilled
GAGACGTA :: fulfilled
AGCTTTCC :: not fulfilled
CGTGCACG :: fulfilled
ACGCTACC :: not fulfilled

Incoming: Please indicate if the recorded binding signal for TCACGCAA meets or exceeds 0.3 E-score.
Outgoing: fulfilled

Incoming: Please indicate if the recorded binding signal for ATTCCGTA meets or exceeds 0.3 E-score.
Outgoing: fulfilled

Incoming: Please indicate if the recorded binding signal for GACGTAAC meets or exceeds 0.3 E-score.
Outgoing: fulfilled

Incoming: Please indicate if the recorded binding signal for AGACGTAA meets or exceeds 0.3 E-score.
Outgoing: fulfilled

Incoming: Please indicate if the recorded binding signal for AGTCAACG meets or exceeds 0.3 E-score.
Outgoing: not fulfilled

Incoming: Please indicate if the recorded binding signal for ACGCATCC meets or exceeds 0.3 E-score.
Outgoing: not fulfilled
